# %Inh listing for each entry below
System: MAPKAPK2
experimental_parameters: concentration: 1 μM,replicates: in singlicate; n = 1;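 further: KINOMEscan kinase panel screen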
Give a bare numeral; the unit % is implied.

compound	target_desc	measured_metric	readout_value
CCCC(=O)Nc1n[nH]c2ncccc12	MAPKAPK2	%Inh	16
COc1cc2c(Nc3ccc(NC(=O)c4ccccc4)cc3)ncnc2cc1OCCCN1CCOCC1	MAPKAPK2	%Inh	23
CN(c1ccc2c(c1)nc(NCc1ccc(F)cc1)n2C)c1ccnc(Nc2ccc(CS(C)(=O)=O)cc2)n1.Cl	MAPKAPK2	%Inh	0
CN1CCN(CCCNc2nccc(-c3c(-c4ccc(F)cc4)nn4cc(C(N)=O)ccc34)n2)CC1	MAPKAPK2	%Inh	0
C[C@@H]1CCN(C(=O)N2CCCC2)C[C@@H]1N(C)c1ncnc2[nH]ccc12	MAPKAPK2	%Inh	0

GET /value?item= COc1cc2ncn(-c3cc(OCC4CCCCC4)c(C(N)=O)s3)c2cc1OC &field=%Inh returns 0

Measured %Inh, CS(=O)c1ccc(-c2coc3ccc(-c4n[nH]c(=O)o4)cc23)cc1 (centres unmarked) : 0

Recorded %Inh (compound Cc1ccc(C(=O)Nc2ccc(Oc3ccc4nc(NC(=O)C5CC5)cn4c3)c(F)c2)c(=O)n1-c1ccccc1 ): 0

====

Tested on: PRKCI
experimental_parameters: concentration: 1 μM,replicates: in singlicate; n = 1
Label 1 (yes) when %Inh is at or above 20%; anything below gets 0 (no).

Study these solved cases before continuing.
molecule	target_desc	category_label
COc1cccc(OC)c1C(=O)Nc1cccc(-c2nn3ccccc3c2-c2ccnc(Nc3cccc(F)c3)n2)c1	PRKCI	1 (yes)
CC(C)S(=O)(=O)N1CCN(Cc2ccc3c(c2)nc(NC(=O)c2ccsc2)n3C[C@H](O)c2ccccc2)CC1	PRKCI	0 (no)
FC(F)(F)c1cc(Br)cc(Nc2nccc(-c3cnn4ncccc34)n2)c1	PRKCI	0 (no)
CNC(=O)c1ccccc1Nc1nc(Nc2cccc(CS(C)(=O)=O)c2)ncc1C.O=CO	PRKCI	0 (no)
Cn1ccc2ncnc(Oc3ccc(NC(=O)Nc4cccc(C(F)(F)F)c4)c(F)c3)c21	PRKCI	1 (yes)
C[C@@H]1CNc2c(sc3ccc4nc(-c5ccncc5)ccc4c23)C(=O)N1	PRKCI	0 (no)
Cn1ccc2ncnc(Oc3ccc(NC(=O)Nc4cncc(C(F)(F)F)c4)c(Cl)c3)c21	PRKCI	0 (no)
Cc1ccc(Nc2ccnc(Nc3ccc4c(c3)CS(=O)(=O)C4)n2)cc1O.Cl	PRKCI	1 (yes)
CSc1nccc(-c2c(-c3ccc(F)cc3)ncn2CCCN2CCOCC2)n1.Cl	PRKCI	0 (no)
Nc1nccc(-c2ccc3c(N)n[nH]c3c2)n1	PRKCI	0 (no)

Asked: Can CC(C(=O)NC1CCN(c2ccnc(Nc3ccc(F)cc3)n2)C1)c1ccc(Cl)cc1 (stereo not drawn) be said to have %Inh at or above 20%?
Given back: 0 (no)

Asked: Tell me whether %Inh is at least 20% here: CCOC(=O)N1CCC(n2cnc(-c3ccc(F)cc3)c2-c2ccnc(N)n2)CC1
Given back: 0 (no)

Asked: Record CN1CCN(CCCNc2nccc(-c3c(-c4ccc(F)cc4)nn4cc(C(N)=O)ccc34)n2)CC1 ; criterion: %Inh no lower than 20%. Met?
Given back: 1 (yes)

Asked: Decide: %Inh of Cl.Cl.NC[C@H](CC1CCCCC1)NC(=O)c1ccc(-c2ccnc3[nH]ccc23)s1 >= 20%?
Given back: 1 (yes)

Asked: Quick check: does CCNCC(Cc1ccccc1)NC(=O)c1cc(Br)c(-c2ccnc3[nH]ccc23)s1.Cl.Cl (stereo not drawn) have %Inh greater than or equal to 20%?
Given back: 1 (yes)

Asked: Decide: %Inh of CCn1c(-c2nonc2N)nc2cncc(CNC3CCNCC3)c21.Cl >= 20%?
Given back: 0 (no)

Asked: Dear colleague, could you confirm whether Cc1n[nH]c2cc(Nc3ccnc(Nc4cccc(CN5CCOCC5)c4)n3)ccc12 has %Inh at or above 20%?
Given back: 1 (yes)

Asked: Hi, just wondering whether O=C1NCCc2[nH]c(-c3ccncc3)cc21 shows %Inh of 20% or higher.
Given back: 0 (no)

====

System: RPS6KA4(Kin.Dom.1-N-terminal)
experimental_parameters: concentration: 1 μM,replicates: in singlicate; n = 1
measured_metric: %Inh (%)
The reply should be a number in %, with the unit left off.

CN(c1ccc2c(c1)nc(NCc1ccc(F)cc1)n2C)c1ccnc(Nc2ccc(CS(C)(=O)=O)cc2)n1.Cl 12
Cl.c1ccc(Oc2ccc(Nc3ccnc4cc(-c5ccc(CN6CCNCC6)o5)ccc34)cc2)nc1 0

The recorded %Inh for COc1cc2ncn(-c3cc(OCC4CCCCC4)c(C(N)=O)s3)c2cc1OC is 7

====

Tested on: ITK
experimental_parameters: concentration: 1 μM,replicates: in singlicate; n = 1
This listing pairs molecules with measured %Inh.
Dear colleague, please return just the value in %, with no unit written.

Sample records with %Inh:
molecule	measured_metric	endpoint_unit	readout_value
CN1CCN(CCNc2nc3cc(Oc4ccc(NC(=O)Nc5cc(C(F)(F)F)ccc5F)cc4)ccc3[nH]2)CC1.Cl.Cl [GW768504]	%Inh	%	0
CCn1c(-c2nonc2N)nc2cncc(CNC3CCNCC3)c21.Cl [SB-747651]	%Inh	%	9
O=C(Nc1n[nH]c2cc(-c3ccco3)ccc12)C1CC1 [SB-737447]	%Inh	%	0

Reported %Inh ( Cn1cc(-c2cccc3c(N)c(C(N)=O)nnc23)cn1 ) = 15

Sample Cn1ccc2ncnc(Oc3ccc(NC(=O)Nc4cc(C(C)(C)C)on4)c(Cl)c3)c21 ; %Inh observed: 16

For C[C@@H](Oc1cc(-n2cnc3ccc(-c4ccncc4)cc32)sc1C(N)=O)c1ccccc1Cl [GSK483724] the molecule record lists %Inh as 22

The molecule listed as O=C(Nc1cccc(Oc2ccc3nccn3n2)c1)Nc1cccc(C(F)(F)F)c1 has a reported %Inh of 0

Value of %Inh reported for the molecule Cn1ccc2ncnc(Oc3ccc(NC(=O)Nc4cccc(C(F)(F)F)c4)c(Cl)c3)c21 is 1

Entry CN1CCN(CCCNc2nccc(-c3c(-c4ccc(F)cc4)nn4cc(C(N)=O)ccc34)n2)CC1 [GW622475] ; %Inh = 10

Please fill in: %Inh reported for Cc1ccn2nc(-c3ccc(F)cc3)c(-c3ccncc3)c2c1.Cl [GW457859] = 0

// recorded %Inh for CS(=O)(=O)Nc1ccc(-c2ccnc3[nH]ccc23)cc1 [GSK993273] : 13

====

Test system: CAMKK2
experimental_parameters: concentration: 1 μM,replicates: in singlicate; n = 1
%Inh overview
Give the number; % is assumed, so skip it.

Cl.Nc1n[nH]c2cc(-c3ccccn3)ccc12 9
CC(C)S(=O)(=O)N1CCN(Cc2ccc3c(c2)nc(NC(=O)c2ccsc2)n3C[C@H](O)c2ccccc2)CC1 61
Nc1nccc(-c2ccc3c(N)n[nH]c3c2)n1 8
CN(c1ccc2c(c1)nc(NCc1ccc(F)cc1)n2C)c1ccnc(Nc2ccc(CS(C)(=O)=O)cc2)n1.Cl 6
CC(=O)Nc1ccc(-c2cc3ncnc(SCC(=O)O)c3s2)cc1 92.3

%Inh reported for this compound O=C(NOCC1CC1)c1cc(Br)c(F)c(F)c1Nc1ccc(I)cc1Cl : 0

The recorded %Inh for C[C@@H](Oc1cc(-n2cnc3cc(-c4ccncc4)ccc32)sc1C(N)=O)c1ccccc1Cl is 54

%Inh reading for Cc1n[nH]c2cc(Nc3ccnc(Nc4cccc(CN5CCOCC5)c4)n3)ccc12 : 13

%Inh in this record for CC(=O)c1c(-c2ccncc2)[nH]c(-c2ccncc2)c1C : 0

====

Test system: NIK
Construct: gene MAP3K14
experimental_parameters: concentration: 1 μM,replicates: in singlicate; n = 1
measured_metric: %Inh

Here is how some compounds turned out for %Inh.
compound	readout_value
FC(F)(F)c1cc(Br)cc(Nc2nccc(-c3cnn4ncccc34)n2)c1	21%
CSc1nccc(-c2c(-c3ccc(F)cc3)ncn2CCCN2CCOCC2)n1.Cl	33%
C[C@@H]1CNc2c(sc3ccc4nc(-c5ccc(O)cc5)ccc4c23)C(=O)N1	84%
Cn1cc(-c2cccc3c(N)c(C(N)=O)nnc23)cn1	21%
CC(C)S(=O)(=O)N1CCN(Cc2ccc3c(c2)nc(NC(=O)c2ccsc2)n3C[C@H](O)c2ccccc2)CC1	9%
COC(=O)c1cccc(NC(=O)NC2CCN(c3ccnc(Nc4cc(OC)c(OC)c(OC)c4)n3)C2)c1 (stereo not drawn)	32%
CCCC(=O)Nc1n[nH]c2ncccc12	10%
CCOC(=O)N1CCC(n2cnc(-c3ccc(F)cc3)c2-c2ccnc(N)n2)CC1	0%

Let us examine a further case.
Consider CNC(=O)c1ccccc1Nc1nc(Nc2cccc(CS(C)(=O)=O)c2)ncc1C.O=CO . Its measured %Inh is 23%

====

Measured %Inh by item
Tested on: BIKE
Construct: gene BMP2K
experimental_parameters: concentration: 1 μM,replicates: in singlicate; n = 1
Field: numeric (%). Do not append units.

// worked examples, %Inh included
compound	target_desc	measured_metric	readout_value
O=c1[nH]cc(-c2ccc(O)cc2)c2sc(-c3ccncc3)cc12 [GSK1033723]	BIKE	%Inh	19
Cc1ccn2nc(-c3ccc(F)cc3)c(-c3ccncc3)c2c1.Cl [GW457859]	BIKE	%Inh	17
Cc1cccc(-c2nc(Nc3ccncc3)c3sccc3n2)n1 [GW869641]	BIKE	%Inh	13
CCNCC(Cc1ccccc1)NC(=O)c1cc(Br)c(-c2ccnc3[nH]ccc23)s1.Cl.Cl (stereo not drawn) [GSK1383280]	BIKE	%Inh	79
Cn1ccc2ncnc(Oc3ccc(NC(=O)Nc4ccnc(C(F)(F)F)c4)c(Cl)c3)c21	BIKE	%Inh	0

Measured %Inh of O=C(Nc1cccc(Oc2ccc3nccn3n2)c1)Nc1cccc(C(F)(F)F)c1 : 11

Quick note, %Inh for O=C(NCC1CC1)c1ccc(-c2cc(C(=O)NC3CC3)ccc2F)cc1 [GW810445] landed at 0

So, CNC(=O)c1ccccc1Nc1nc(Nc2cccc(CS(C)(=O)=O)c2)ncc1C.O=CO [GSK1520489] ? Its %Inh was 99.2

Summary for this compound, COc1cccc(C2=C(Nc3cccc(Cl)c3)C(=O)NC2=O)c1 [SB-341556] : %Inh is 34
